- assayTarget: T1, human LAG-3 on cells (HEK293-hLAG-3 stable cell line) (human, UniProt P18627 23-525)
- T1 sequence: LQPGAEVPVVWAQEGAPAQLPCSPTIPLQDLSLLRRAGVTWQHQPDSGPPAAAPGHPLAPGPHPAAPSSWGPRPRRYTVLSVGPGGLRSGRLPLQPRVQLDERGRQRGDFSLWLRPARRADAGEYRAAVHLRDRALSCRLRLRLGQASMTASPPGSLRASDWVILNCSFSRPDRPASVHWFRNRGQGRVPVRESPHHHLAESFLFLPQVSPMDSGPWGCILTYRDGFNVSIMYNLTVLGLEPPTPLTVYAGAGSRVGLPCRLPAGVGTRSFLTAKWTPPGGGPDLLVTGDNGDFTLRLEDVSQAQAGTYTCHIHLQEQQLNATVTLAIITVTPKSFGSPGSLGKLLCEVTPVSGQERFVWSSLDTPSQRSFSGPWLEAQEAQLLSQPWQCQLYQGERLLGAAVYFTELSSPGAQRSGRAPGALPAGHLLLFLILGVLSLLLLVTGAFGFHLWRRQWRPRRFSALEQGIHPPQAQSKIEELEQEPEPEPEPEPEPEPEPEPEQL
- method: FACS, HEK293-hLAG-3, antibody 0.064 nM
Each item that follows carries a reported Mean fluorescence intensity.
Give the value as a plain number.

binder	measurementKind	reading
556F6B8-10 humanized antibody (antibody, V domains shown) VH: QVQLQESGPGLVKPSETLSLTCTVSGFSIIKYGVHWIRQPPGKGLEWIGVIWRGGITDYNAAFMSRVTISVDTSKNQFSLKLSSVTAADTAVYYCARWDGPLAMDYWGQGTTVTVSS VL: DIVLTQSPSFLSASVGDRVTITCKASQDVGTTVAWYQQKPGKSPKLLIYWASTRHTGVPSRFSGSGSGTEFTLTISSLQPEDFATYYCQQYSSYPYTFGQGTKLEIK	Mean fluorescence intensity	6

Shifting focus to the binder that follows.
Qu. Fill in: Mean fluorescence intensity of 556F6B8-9 humanized antibody (antibody, V domains shown) VH: QVQLQESGPGLVKPSETLSLTCTVSGGSISKYGVHWIRQPPGKGLEWIGVIWRGGITDYNAAFMSRVTISVDTSKNQFSLKLSSVTAADTAVYYCARWDGPLAMDYWGQGTTVTVSS VL: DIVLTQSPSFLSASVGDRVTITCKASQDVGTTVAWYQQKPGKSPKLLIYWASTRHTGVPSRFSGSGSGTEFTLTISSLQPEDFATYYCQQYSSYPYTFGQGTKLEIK is ___
Ans. 4
